Sourced from ChEMBL document CHEMBL2380282

Recorded Ki values (Prothrombin (Homo sapiens, UniProt P00734)) are given below.
# value in nM; strip the unit string

COMPOUND: N=C(N)c1ccc(CNC(=O)CN2C(=O)C(NS(=O)(=O)c3ccc4c(c3)CCO4)CCc3ccccc32)cc1 (configuration not stated)
TARGET_OR_SYSTEM: Prothrombin (Homo sapiens, UniProt P00734)
Ki, nM: 15.8

Now for the compound whose Ki we want.
If you can, please state the reported Ki value of COc1ccc(OC)c(S(=O)(=O)NC2CCCCN(CC(=O)NCc3ccc(C(=N)N)cc3)C2=O)c1 (configuration not stated) .
10
